# Lookup of reported pIC50 keyed by entry
# Target or system: mouse TRPM3α2 (mTRPM3) ion channel (Mus musculus)
# Protocol: TRPM3 ion channel driven Ca2+ uptake (Fluo-4 AM assay), PS-stimulated overexpressing HEK293 cells
# Measurement conditions: flip-in HEK293 overexpressing TRPM3, stimulated with Pregnenolone sulfate (PS) 50 μM, activity ranges A, B, C
pIC50: −log10 of the molar value.
Reported endpoint: pIC50

Cc1oc2cnc(OCc3ccccn3)cc2c1C(=O)NC(C)C(N)=O (single isomer, unassigned) [Cpd 006 _ En2] | 4.70 to 6.00
Cc1ncsc1CCOc1cc2c(C(=O)NC3CNCC3(F)F)c(C)oc2cn1 (stereo not drawn) | 4.70 to 6.00
Cc1oc2cnc(OCc3ccccn3)cc2c1C(=O)NC1CCN(CCO)C1=O (stereo not drawn) | 4.70 to 6.00
Cc1oc2cnc(OCc3ccccn3)cc2c1C(=O)NC1(CO)CC1 | < 4.70
Cc1oc2cnc(OCc3ccccc3F)cc2c1C(=O)NC1(CO)CC1 | 4.70 to 6.00
Cc1oc2cnc(OCc3ccccn3)cc2c1C(=O)NC1(CO)COC1 | < 4.70
Cc1oc2cnc(OCc3ccccn3)cc2c1C(=O)NC1(C(N)=O)CCOCC1 | 4.70 to 6.00
Cc1ncsc1COc1cc2c(C(=O)NC(CO)C(N)=O)c(C)oc2cn1 (single isomer, unassigned) [Cpd 013-En1] | < 4.70
Cc1ncsc1COc1cc2c(C(=O)NC(CO)C(N)=O)c(C)oc2cn1 (single isomer, unassigned) [Cpd 013-En2] | > 6.00
Cc1oc2cnc(OCc3ccccc3)cc2c1C(=O)NC1CNCC1(F)F (single isomer, unassigned) [Cpd 015-En1] | < 4.70
Cc1oc2cnc(OCc3ccccc3)cc2c1C(=O)NC(C)C(N)=O (stereo not drawn) | 4.70 to 6.00
Cc1oc2cnc(OCc3ccccn3)cc2c1C(=O)NC(CO)C(N)=O (single isomer, unassigned) [Cpd 014-En1] | 4.70 to 6.00

---

# Target or system: mouse TRPM3α2 (mTRPM3) ion channel (Mus musculus, UniProt J9SQF3)
# Sequence (J9SQF3 1-1709 isoform J9SQF3-12): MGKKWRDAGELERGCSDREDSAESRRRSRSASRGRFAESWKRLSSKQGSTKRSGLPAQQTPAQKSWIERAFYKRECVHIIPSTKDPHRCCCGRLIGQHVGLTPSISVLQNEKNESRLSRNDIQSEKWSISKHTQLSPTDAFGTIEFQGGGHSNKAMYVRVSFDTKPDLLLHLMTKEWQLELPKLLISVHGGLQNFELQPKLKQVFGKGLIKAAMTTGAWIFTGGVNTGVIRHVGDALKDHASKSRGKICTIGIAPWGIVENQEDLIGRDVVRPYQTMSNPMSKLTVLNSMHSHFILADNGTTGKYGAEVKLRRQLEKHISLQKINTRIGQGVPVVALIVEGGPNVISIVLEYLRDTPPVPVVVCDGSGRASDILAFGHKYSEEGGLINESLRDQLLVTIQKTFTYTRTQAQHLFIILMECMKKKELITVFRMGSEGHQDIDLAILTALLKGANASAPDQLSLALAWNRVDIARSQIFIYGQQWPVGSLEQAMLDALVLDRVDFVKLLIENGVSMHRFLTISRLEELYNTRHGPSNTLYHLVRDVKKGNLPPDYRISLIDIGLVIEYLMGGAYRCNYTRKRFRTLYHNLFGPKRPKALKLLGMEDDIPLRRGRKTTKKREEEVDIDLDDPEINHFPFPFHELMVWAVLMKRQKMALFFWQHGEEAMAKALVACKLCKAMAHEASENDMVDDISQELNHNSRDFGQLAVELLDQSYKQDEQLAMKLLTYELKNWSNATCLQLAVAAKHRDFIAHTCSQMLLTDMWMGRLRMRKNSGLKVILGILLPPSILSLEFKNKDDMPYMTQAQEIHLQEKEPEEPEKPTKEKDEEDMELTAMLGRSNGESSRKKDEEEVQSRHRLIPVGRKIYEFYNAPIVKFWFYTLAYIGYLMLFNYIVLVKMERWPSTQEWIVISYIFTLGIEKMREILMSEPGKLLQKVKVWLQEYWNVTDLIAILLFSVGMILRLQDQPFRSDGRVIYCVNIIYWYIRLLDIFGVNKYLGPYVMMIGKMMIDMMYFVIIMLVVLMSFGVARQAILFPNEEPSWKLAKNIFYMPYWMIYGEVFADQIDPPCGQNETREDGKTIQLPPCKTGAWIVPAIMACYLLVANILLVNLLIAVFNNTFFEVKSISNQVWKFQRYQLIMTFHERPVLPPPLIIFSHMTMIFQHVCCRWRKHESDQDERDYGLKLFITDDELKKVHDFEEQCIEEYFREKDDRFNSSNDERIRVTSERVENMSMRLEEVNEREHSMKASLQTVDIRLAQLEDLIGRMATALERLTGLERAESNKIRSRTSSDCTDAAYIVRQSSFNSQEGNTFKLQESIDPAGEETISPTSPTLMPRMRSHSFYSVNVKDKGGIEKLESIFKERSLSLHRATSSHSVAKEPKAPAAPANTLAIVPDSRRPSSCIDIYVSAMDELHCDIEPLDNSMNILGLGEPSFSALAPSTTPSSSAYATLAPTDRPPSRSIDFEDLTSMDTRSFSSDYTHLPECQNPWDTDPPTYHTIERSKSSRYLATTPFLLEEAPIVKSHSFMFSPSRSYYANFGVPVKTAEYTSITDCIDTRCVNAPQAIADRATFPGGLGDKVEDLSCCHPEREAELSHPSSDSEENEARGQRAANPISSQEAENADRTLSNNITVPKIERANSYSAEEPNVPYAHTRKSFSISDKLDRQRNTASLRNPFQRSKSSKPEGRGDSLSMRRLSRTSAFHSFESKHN
# Protocol: TRPM3 ion channel driven Ca2+ uptake (Fluo-4 AM assay), PS-stimulated overexpressing HEK293 cells
# Measurement conditions: flip-in HEK293 overexpressing TRPM3, stimulated with Pregnenolone sulfate (PS) 50 μM, activity ranges A, B, C
pIC50: −log10 of the molar value.
Reported endpoint: pIC50

Cc1ncsc1COc1cc2c(C(=O)NC3(C(N)=O)COC3)c(C)oc2cn1 [Cpd 019] | < 4.70
Cc1ncsc1COc1cc2c(C(=O)N[C@H](C(N)=O)[C@@H](C)O)c(C)oc2cn1 [Cpd 004] | > 6.00
Cc1ncsc1COc1cc2c(C(=O)NC3CNCC3(F)F)c(C)oc2cn1 (single isomer, unassigned) [Cpd 021-En1] | > 6.00
Cc1ncsc1COc1cc2c(C(=O)NC3(CO)CC3)c(C)oc2cn1 [Cpd 030] | < 4.70
Cc1ncsc1COc1cc2c(C(=O)NC(C)C(N)=O)c(C)oc2cn1 (single isomer, unassigned) [Cpd 005-En2] | < 4.70
Cc1ncsc1COc1cc2c(C(=O)NC3(CO)CCC3)c(C)oc2cn1 [Cpd 028] | 4.70 to 6.00
Cc1oc2cnc(OCc3cccnc3C(F)(F)F)cc2c1C(=O)N[C@@H]1CCNCC1(F)F [Cpd 025] | > 6.00
Cc1oc2cnc(OCc3ccccn3)cc2c1C(=O)NC(C)C(N)=O (single isomer, unassigned) [Cpd 006 _ En1] | 4.70 to 6.00
Cc1oc2cnc(OCc3ccccc3F)cc2c1C(=O)NC(CO)C(N)=O (single isomer, unassigned) [Cpd 008-En1] | 4.70 to 6.00
Cc1ncsc1COc1cc2c(C(=O)NC3(CO)CCOCC3)c(C)oc2cn1 [Cpd 035] | 4.70 to 6.00
Cc1ncsc1COc1cc2c(C(=O)NC(C)C(N)=O)c(C)oc2cn1 (single isomer, unassigned) [Cpd 005-En1] | 4.70 to 6.00
Cc1ncsc1COc1cc2c(C(=O)NC(C)(C)C(N)=O)c(C)oc2cn1 [Cpd 011] | 4.70 to 6.00
Cc1oc2cnc(OCc3ccccn3)cc2c1C(=O)NC(CO)C(N)=O (single isomer, unassigned) [Cpd 014-En2] | > 6.00
Cc1ncsc1COc1cc2c(C(=O)NC3CNCC3(F)F)c(C)oc2cn1 (single isomer, unassigned) [Cpd 021-En2] | < 4.70
Cc1oc2cnc(OCc3ccccc3F)cc2c1C(=O)N[C@H](C(N)=O)[C@@H](C)O [Cpd 002] | > 6.00
Cc1ncsc1COc1cc2c(C(=O)NC3(CO)COC3)c(C)oc2cn1 [Cpd 033] | 4.70 to 6.00
Cc1oc2cnc(OCc3ccccc3F)cc2c1C(=O)NC(C)C(N)=O (single isomer, unassigned) [Cpd 009-En2] | 4.70 to 6.00
COc1ncccc1COc1cc2c(C(=O)NC3(CO)CC3)c(C)oc2cn1 [Cpd 032] | < 4.70
Cc1oc2cnc(OCc3ccccc3F)cc2c1C(=O)NC(CO)C(N)=O (single isomer, unassigned) [Cpd 008-En2] | > 6.00
Cc1ncc(COc2cc3c(C(=O)N[C@H](C(N)=O)[C@@H](C)O)c(C)oc3cn2)s1 [Cpd 003] | 4.70 to 6.00
Cc1oc2cnc(OCc3ccccc3F)cc2c1C(=O)NC1CCN(CCO)C1=O (single isomer, unassigned) [Cpd 017-En2] | 4.70 to 6.00
Cc1oc2cnc(OCc3ccccc3)cc2c1C(=O)NC1CNCC1(F)F (single isomer, unassigned) [Cpd 015-En2] | > 6.00
Cc1oc2cnc(OCc3ccccn3)cc2c1C(=O)NC1(C(N)=O)COC1 [Cpd 020] | 4.70 to 6.00
Cc1oc2cnc(OCCc3ccccc3)cc2c1C(=O)NC1CNCC1(F)F (centres unmarked) [Cpd 022-En1] | 4.70 to 6.00
Cc1oc2cnc(OCc3ccccc3F)cc2c1C(=O)NC(C)(C)C(N)=O [Cpd 007] | 4.70 to 6.00
Cc1oc2cnc(OCc3cccnc3C(F)(F)F)cc2c1C(=O)N[C@H]1CCNCC1(F)F [Cpd 026] | 4.70 to 6.00
Cc1oc2cnc(OCc3ccccn3)cc2c1C(=O)NC(C)(C)C(N)=O [Cpd 012] | 4.70 to 6.00
Cc1ncc(COc2cc3c(C(=O)N[C@@H](CO)C(N)=O)c(C)oc3cn2)s1 [Cpd 001] | 4.70 to 6.00
Cc1oc2cnc(OCc3ccccn3)cc2c1C(=O)NC1(CO)CCC1 [Cpd 029] | 4.70 to 6.00
Cc1oc2cnc(OCc3ccccc3F)cc2c1C(=O)NC(C)C(N)=O (single isomer, unassigned) [Cpd 009-En1] | 4.70 to 6.00
Cc1oc2cnc(OCc3ccccc3F)cc2c1C(=O)NC1CCN(CCO)C1=O (single isomer, unassigned) [Cpd 017-En1] | 4.70 to 6.00
Cc1oc2cnc(OCc3ccccc3)cc2c1C(=O)NC1(CO)CCOCC1 [Cpd 016] | < 4.70

Just for reference, patent US20250346605A1 is where these values come from.
